Listing of recorded Cellular viability (%) (+) microsome by entry.
# Test system: Human liver cancer cell line HepG2 cells
# Assay details: Cellular viability, WST-8 assay, without or with human liver microsomes
# Type: cell-based
# Condition description: at 50 μM, HepG2, with human liver microsomes
Quantity name: Cellular viability (%) (+) microsome

molecule="O=C(NCCCn1ccnc1)c1nc(-c2ccc(C(F)(F)F)cc2)oc1-c1ccccc1[N+](=O)[O-] [Compound 158]" subject_of_test="Human liver cancer cell line HepG2 cells" quantity_name="Cellular viability (%) (+) microsome" recorded_measurement="17 at %"
molecule="CN(C)CCNC(=O)c1nc(-c2ccc(F)c(F)c2)oc1-c1ccccc1 [Compound 231]" subject_of_test="Human liver cancer cell line HepG2 cells" quantity_name="Cellular viability (%) (+) microsome" recorded_measurement="29 at %"
molecule="CN(C)CCNC(=O)c1nc(-c2ccc(OC(F)(F)F)cc2)oc1-c1ccccc1 [Compound 203]" subject_of_test="Human liver cancer cell line HepG2 cells" quantity_name="Cellular viability (%) (+) microsome" recorded_measurement="30 at %"
molecule="CN1CCN(CCNC(=O)c2nc(-c3ccc(C(F)(F)F)cc3)oc2-c2ccccc2[N+](=O)[O-])CC1 [Compound 153]" subject_of_test="Human liver cancer cell line HepG2 cells" quantity_name="Cellular viability (%) (+) microsome" recorded_measurement="36 at %"
molecule="CN(C)CCN1CCN(C(=O)c2nc(-c3ccc(Cl)cc3)oc2-c2ccccc2[N+](=O)[O-])CC1 [Compound 248]" subject_of_test="Human liver cancer cell line HepG2 cells" quantity_name="Cellular viability (%) (+) microsome" recorded_measurement="31 at %"
